molecular target: Delta-type opioid receptor (Rattus norvegicus, UniProt P33533); experiment: Displacement of [3H][Ile5,6]-deltorphin II from delta-type opioid receptor in Sprague-Dawley rat brain membranes; format: cell membranes, Membrane
Sequence (P33533 whole entry): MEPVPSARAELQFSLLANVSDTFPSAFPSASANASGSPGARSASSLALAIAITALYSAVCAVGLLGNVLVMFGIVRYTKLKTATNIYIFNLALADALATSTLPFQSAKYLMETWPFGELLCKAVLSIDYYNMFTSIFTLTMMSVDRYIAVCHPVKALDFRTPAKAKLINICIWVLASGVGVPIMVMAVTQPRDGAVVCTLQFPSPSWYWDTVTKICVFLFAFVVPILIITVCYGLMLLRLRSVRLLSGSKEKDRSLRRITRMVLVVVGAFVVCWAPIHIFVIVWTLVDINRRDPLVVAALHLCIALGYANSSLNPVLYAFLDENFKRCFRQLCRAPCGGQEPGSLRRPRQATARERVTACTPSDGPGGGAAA
Measured metric: pIC50
Field pIC50 (float): negative decimal logarithm of the concentration in molar.

Sure, the documented pIC50 for C[C@@H](NC(=O)[C@@H](N)Cc1ccc(O)cc1)C(=O)N[C@H]1Cc2ccccc2CN(CC(N)=O)C1=O is 7.80

---

molecular target: Mu-type opioid receptor (Cavia porcellus); assay: Agonist activity at mu-opioid receptor in guinea pig ileum assessed as inhibition of electrically induced contractions; assay type: functional
Sequence (P97266 whole entry): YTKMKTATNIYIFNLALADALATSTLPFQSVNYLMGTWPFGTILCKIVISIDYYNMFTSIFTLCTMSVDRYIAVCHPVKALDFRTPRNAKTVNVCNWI
Measured metric: pIC50
Field pIC50 (float): negative decimal logarithm of the concentration in molar.

Here is how some compounds turned out for pIC50.
[[record]]
compound = "Cc1cc(O)cc(C)c1C[C@H](N)C(=O)N[C@H](C)C(=O)N[C@H]1Cc2c(ccc3ccccc23)CN(CC(N)=O)C1=O"
numeric_value = 8.95

[[record]]
compound = "Cc1cc(O)cc(C)c1C[C@H](N)C(=O)N[C@H](CCCNC(=N)N)C(=O)N[C@H]1Cc2c(ccc3ccccc23)CN(CC(N)=O)C1=O"
numeric_value = 9.60

[[record]]
compound = "C[C@@H](NC(=O)[C@@H](N)Cc1ccc(O)cc1)C(=O)N[C@@H](Cc1ccccc1)C(=O)NCC(=O)N[C@@H](Cc1ccc(O)cc1)C(=O)N1CCC[C@H]1C(=O)N[C@@H](CO)C(N)=O [DERMORPHIN]"
numeric_value = 8.97


Sure, the documented pIC50 for Cc1cc(O)cc(C)c1C[C@H](N)C(=O)N[C@H](CCCNC(=N)N)C(=O)N[C@H]1Cc2ccc3ccccc3c2CN(CC(N)=O)C1=O is 7.67
